# Target: β-domain of DnaK (SBD), residues 393–507 (Escherichia coli, UniProt P0A6Y8)
# Sequence (P0A6Y8 393-507): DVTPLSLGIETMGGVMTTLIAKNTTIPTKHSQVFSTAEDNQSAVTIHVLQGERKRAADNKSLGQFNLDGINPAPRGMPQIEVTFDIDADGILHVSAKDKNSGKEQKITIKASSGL
Let's look at some compounds and their measured Kd.
# output: bare number, implied unit nM

Worked set:
[
  {
    "Compound": "O=C(NCc1cccc2ccccc12)c1cccs1",
    "Unit Abbreviation": "nM",
    "Kd": 1000
  },
  {
    "Compound": "O=C(Nc1ccc2[nH]ccc2c1)c1cccs1 [D7, N-(1H-indol-5-yl)thiophene-2-carboxamide]",
    "Unit Abbreviation": "nM",
    "Kd": 4900
  }
]

Kd for `O=C(Nc1ncc2ccccc2n1)c1cccs1` is 1500

###

# Target: Full-length DnaK (FL, flDnaK) (Escherichia coli, UniProt P0A6Y8)
# Sequence (P0A6Y8 2-638): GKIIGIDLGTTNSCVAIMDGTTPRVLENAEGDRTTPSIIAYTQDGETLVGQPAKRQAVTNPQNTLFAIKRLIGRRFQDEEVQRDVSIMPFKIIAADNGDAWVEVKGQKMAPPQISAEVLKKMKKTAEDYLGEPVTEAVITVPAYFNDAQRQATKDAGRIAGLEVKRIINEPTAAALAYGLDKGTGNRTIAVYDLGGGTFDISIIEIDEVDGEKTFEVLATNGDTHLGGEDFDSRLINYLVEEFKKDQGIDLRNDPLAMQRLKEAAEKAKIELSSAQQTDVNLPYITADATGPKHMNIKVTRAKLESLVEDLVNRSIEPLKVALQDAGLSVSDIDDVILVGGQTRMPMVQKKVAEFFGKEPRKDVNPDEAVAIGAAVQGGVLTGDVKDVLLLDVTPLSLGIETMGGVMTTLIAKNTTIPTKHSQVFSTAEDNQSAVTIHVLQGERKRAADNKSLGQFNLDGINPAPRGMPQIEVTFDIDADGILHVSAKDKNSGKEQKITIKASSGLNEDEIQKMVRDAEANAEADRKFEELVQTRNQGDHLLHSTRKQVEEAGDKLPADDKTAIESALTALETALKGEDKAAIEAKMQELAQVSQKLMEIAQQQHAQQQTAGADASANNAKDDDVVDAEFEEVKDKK
pKd: −log10 of the molar value.
Answer F if pKd is under 6, and T if it is 6 or more.

Some solved entries appear below for comparison.
[
  {
    "Compound": "O=C(NCc1ccc(Cl)c(Cl)c1)c1cccs1",
    "Answer Label": "F"
  },
  {
    "Compound": "O=C(NCc1cccc2ccsc12)c1cccs1",
    "Answer Label": "T"
  },
  {
    "Compound": "O=C(c1cccs1)N1CCN(CCO)CC1",
    "Answer Label": "F"
  },
  {
    "Compound": "O=C(NCc1ccccc1O)c1cccs1",
    "Answer Label": "F"
  }
]

Query compound follows.
[in] Assess whether reported pKd for `O=C(NCc1cc(Cl)cc(Cl)c1)c1cccs1` sits at 6 or higher.
[out] F
